# Test system: ACHN
# test.name: NCI tumour cell line growth inhibition, 48 h
Calls of active or inactive are those of the source. Cut-off read from the data, not from the text of the source: active = GI50 up to about 1.1 µM and inactive = higher.
Exercise: for every item that follows, state its recorded GI50.

Ask: Value wanted: GI50 (ACHN) of entry O=C(CSc1nnc(Cc2ccccc2)o1)Nc1ccc(Cl)cc1
Reply: 75.9 µM (inactive)

Ask: Try the compound COc1cccc(/C=C2\CCC(CCN(C)C)(C3=CCCC3)C2=O)c1 (centres undefined)
Reply: 16.7 µM (inactive)

Ask: Try the compound CNC(=O)CN(CC(=O)O)C(=O)NC
Reply: > 100 µM (inactive)

Ask: Try the compound CN1C=C(C(N)=O)Cc2ccsc21
Reply: > 100 µM (inactive)

Ask: Try the compound CC1(C)C[C@H](O)[C@H](O)[C@]23C(=O)O[C@H](O)[C@H]2C(C=O)=CC[C@@H]13
Reply: > 100 µM (inactive)

Ask: Try the compound C(=C\C(SCc1ccccc1)SCc1ccccc1)/c1ccccc1
Reply: > 10 µM (inactive)

Ask: Try the compound COC(=O)C1=C(C)NC(=S)NC1c1ccc(N(CCCl)CCCl)cc1Cl (centres undefined)
Reply: 11 µM (inactive)

Ask: Try the compound COc1c(Br)cc2ccccc2c1-c1c(OC)c(Br)cc2ccccc12
Reply: > 100 µM (inactive)

Ask: Try the compound O=C(CC(O)c1cccnc1)CC(O)c1cccnc1 (centres undefined)
Reply: 17.8 µM (inactive)

====

# Test system: NCI-H460
# test.name: NCI tumour cell line growth inhibition, 48 h
Calls of active or inactive are those of the source. Cut-off read from the data, not from the text of the source: active = GI50 up to about 1.1 µM and inactive = higher.
Reply using exactly one outcome from YES for active, NO for inactive

Ask: What was the test verdict on BrC(Br)=C1C(=C(Br)Br)C(Br)C1Br (stereo unspecified) ?
Reply: YES

Ask: Try the compound Cc1nc2ccccc2c(=O)n1NC(=S)Nc1ccc(Cl)cc1[N+](=O)[O-]
Reply: NO

Ask: Try the compound CCN(CC)CC[n+]1ccc2c(C)c3[nH]c4ccccc4c3c(C)c2c1
Reply: YES

Ask: Try the compound CN1Cc2ccccc2S(=O)(=O)n2cccc2C1=O
Reply: NO

Ask: Try the compound CC(C)n1c(=O)n(-c2ccccc2)n(C(C)(C)C)c1=O
Reply: NO

Ask: Try the compound N#CC1=C(N)OC2=C(CCCc3ccc([N+](=O)[O-])cc32)C1c1ccc(Cl)cc1 (stereo unspecified)
Reply: NO

Ask: Try the compound O=c1oc2ccc([N+](=O)[O-])cc2cc1-c1csc(-c2ccccc2)n1
Reply: NO

Ask: Try the compound O=C1Oc2ccccc2C1C/C(=N\Nc1ccccc1)c1ccccc1O (stereo unspecified)
Reply: NO

Ask: Try the compound Cc1ccc(/C=C/C(=O)C(C)(C)CN2CCCCC2)cc1
Reply: NO

Ask: Try the compound O/N=C/c1ncccc1C1OCCO1
Reply: NO

Ask: Try the compound CCOC(=O)c1c(N2CCCC2)[nH]c(=O)c(C(c2c(O)c(C(=O)OCC)c(N3CCCC3)[nH]c2=O)C(C)C)c1O
Reply: NO

====

# System: SK-MEL-28
# test.name: NCI tumour cell line growth inhibition, 48 h
Activity calls are given as the source filed them. Rule as the data show it: active = GI50 up to about 1.1 µM and inactive = higher.
Reply using exactly one outcome from 1 (active), -1 (inactive)

Ask: What was the test verdict on C/C(O[Si](C(C)C)(C(C)C)C(C)C)=C(\C)C(=O)N(C)c1ccccc1Cl ?
Reply: -1

Ask: Try the molecule COc1cc2c3cc1Oc1c(O)c(OC)cc4c1C(Cc1ccc(O)c(c1)Oc1ccc(cc1)CC3N(C)CC2)N(C)CC4 (stereo unspecified)
Reply: -1

Ask: Try the molecule CC(=O)Oc1c2oc3cc(O)c(O)cc3c2c(OC(C)=O)c2oc3cc(O)c(O)cc3c12 [POLYOZELLIN]
Reply: -1

Ask: Try the molecule O=c1[nH]c(=O)n(COCc2ccccc2)c2ccc([N+](=O)[O-])cc12
Reply: -1

Ask: Try the molecule CC(C)(C)c1ccc(O)c(CN(Cc2c(O)ccc3ccccc23)C2CCCCC2)c1
Reply: -1

Ask: Try the molecule CC(/C=C/c1ccccc1)=N\N=C(C)\C=C\c1ccccc1
Reply: -1

Ask: Try the molecule Cc1ccc(N2C(=O)N(c3ccc(C)cc3)C3(SC=NN3C)C2=O)cc1 (stereo unspecified)
Reply: -1

Ask: Try the molecule CCCCCCCCCCCCC(O)[C@H]1CC[C@H](C(O)CCCCCC(=O)CCCCC2CC(C(C)=O)C(=O)O2)O1 (stereo partly specified)
Reply: -1

Ask: Try the molecule CCn1cnnc1-c1nsc2ccccc12
Reply: -1

Ask: Try the molecule ClC[Si]12OCCN(CCO1)CCO2
Reply: -1

Ask: Try the molecule CC(=O)OCC1OC(NC(=S)Nn2c(=O)[nH]c3ccccc3c2=O)C(OC(C)=O)C(OC(C)=O)C1OC(C)=O (stereo unspecified)
Reply: -1

Ask: Try the molecule COc1cccc(-c2ccc3c4c2O[C@H]2C(=O)CC[C@@]5(O)[C@@H](C3)N(CC3CC3)CC[C@]425)c1
Reply: -1

Ask: Try the molecule CC(O)CN1c2ccccc2Sc2ccc(Cl)cc21 (stereo unspecified)
Reply: -1

Ask: Try the molecule c1nncn1C12C3C4C5C3C1C5C42 (stereo unspecified)
Reply: -1

Ask: Try the molecule C=C(C)C(=O)OC1CC2=CC(CC3(C)OC3C3OC(=O)C(=C)C13)OC2=O (stereo unspecified)
Reply: -1

Ask: Try the molecule Cc1nc2ccccc2c(=O)n1NC(=S)Nc1ccc(Cl)cc1[N+](=O)[O-]
Reply: -1

Ask: Try the molecule CCOC(=O)NN(C(=O)OCC)c1c(C)cc(C)cc1C
Reply: -1

Ask: Try the molecule CC(C)=CCC/C(C)=C/C=C/C(C)=C/C=C/C(C)=C/C=C/C=C(C)/C=C/C=C(C)/C=C/[C@H]1C(C(C)(C)O)CC[C@]1(C)O (stereo partly specified)
Reply: -1

Ask: Try the molecule CC(C)(C)OC(=O)NCCC(=O)NC1(c2cc3ccccc3s2)CCCCC1
Reply: -1

Ask: Try the molecule CCOC(=O)C(C(=O)OCC)c1ccc([N+](=O)[O-])o1
Reply: -1

Ask: Try the molecule CCOC(=O)Nc1ccc(S(=O)(=O)OC)cc1.CCOC(=O)Nc1ccc(S(=O)(=O)OC)cc1.Cc1cn(C2CC(O)C(CO)O2)c(=O)[nH]c1=O
Reply: -1

Ask: Try the molecule CC(C)(C)[Si](C)(C)OC1(CCc2ccccc2OS(=O)(=O)C(F)(F)F)CCCC=C1COCc1ccccc1 (stereo unspecified)
Reply: -1

Ask: Try the molecule Clc1ccc(Cc2nc3cc(Cl)c(Cl)cc3n2CC2CCCN3CCCCC23)cc1Cl (stereo unspecified)
Reply: -1

Ask: Try the molecule O=C(Nc1cccc(F)c1)c1cc2ccc(O)cc2o/c1=N\c1cccc(F)c1
Reply: -1

Ask: Try the molecule CCOc1cccc2[s+]snc12
Reply: -1

Ask: Try the molecule CC1(CO)OC(n2cnc3cncnc32)CC1O (stereo unspecified)
Reply: -1

Ask: Try the molecule Cc1nc(Nc2ccc(Cl)c(Cl)c2)sc1C(=O)/C=C/c1ccc2c(c1)OCO2
Reply: -1

Ask: Try the molecule N#Cc1nc(C#N)n(S(=O)(=O)c2ccccc2)c1NS(=O)(=O)c1ccccc1
Reply: -1

Ask: Try the molecule O/N=C/c1ncccc1C1OCCO1
Reply: -1

Ask: Try the molecule CC(=O)OCC1OC(SC2OC(COC(C)=O)C(OC(C)=O)C(OC(C)=O)C2OC(C)=O)C(OC(C)=O)C(OC(C)=O)C1OC(C)=O (stereo unspecified)
Reply: -1

Ask: Try the molecule COc1cc2cc(C(=O)N3C[C@@H](CCl)c4c3cc(N)c3ccccc43)[nH]c2c(OC)c1OC
Reply: 1

Ask: Try the molecule CC(Oc1ccccc1Cl)C(=O)NN1C(=O)CSC1c1ccccc1 (stereo unspecified)
Reply: -1

Ask: Try the molecule COc1ccc2c3c([nH]c2c1)-c1nc2ccccc2c(=O)n1CC3
Reply: -1

Ask: Try the molecule O=C1NC2NC3NC(=O)NC3NC2N1 (stereo unspecified)
Reply: -1

Ask: Try the molecule CCOP(=O)(OCC)C(c1ccccc1)N(C(=O)NC(F)(F)F)c1cccc(F)c1 (stereo unspecified)
Reply: -1

Ask: Try the molecule c1ccc(C2N=C(c3ccccn3)C(c3ccccn3)=NC2c2ccccc2)cc1 (stereo unspecified)
Reply: -1

Ask: Try the molecule C/C(=N\n1c(Cc2ccccc2)n[nH]c1=O)c1ccc([N+](=O)[O-])cc1
Reply: -1

Ask: Try the molecule CC12CN(CC[N+](C)(C)C)CC1(C)C1CCC2O1 (stereo unspecified)
Reply: -1

Ask: Try the molecule O=S(=O)(/N=c1\[nH]c(-c2cc(O)c(O)c(O)c2)cs1)c1ccc(Cl)cc1Cl
Reply: -1

Ask: Try the molecule C/C(=N/NC(=S)Nc1ccccc1Cl)c1ccccn1
Reply: -1

Ask: Try the molecule Oc1ccc(-c2nc3cc(F)ccc3s2)cc1
Reply: -1

Provenance of the data: ChEMBL document CHEMBL1201862
